Biological target: UniProt:O14746
Test: Inhibition of telomerase in human SW1116 cells after 24 hrs by TRAP-PCR-ELISA assay
attributeMeasured: pIC50
One number for each entry, as −log10 of the molar value.

{"smilesCode": "Clc1cccc(CSc2nnc(-c3ccc4c(c3)OCCO4)o2)c1", "valueReported": 5.63}
{"smilesCode": "Fc1ccccc1CSc1nnc(-c2ccc3c(c2)OCCO3)o1", "valueReported": 5.53}
{"smilesCode": "Cc1cccc(CSc2nnc(-c3ccc4c(c3)OCCO4)o2)c1", "valueReported": 5.49}
{"smilesCode": "O=[N+]([O-])c1ccc(CSc2nnc(-c3ccc4c(c3)OCCO4)o2)cc1", "valueReported": 5.57}
{"smilesCode": "Brc1ccc(CSc2nnc(-c3ccc4c(c3)OCCO4)o2)cc1", "valueReported": 5.78}

Each of the following entries comes with a recorded value; kindly state pIC50 for each.
1. Clc1ccccc1CSc1nnc(-c2ccc3c(c2)OCCO3)o1
2. c1ccc(CSc2nnc(-c3ccc4c(c3)OCCO4)o2)cc1

[reply]
[5.23, 5.09]

---

Test: Antiproliferative activity against human SW1116 cells after 48 hrs by MTT assay
Format: functional, cell-based
Details: SW 1116, 48 h
Label T when IC50 is strictly below 30 µM; at or above that, label F.

{"smilesCode": "O=[N+]([O-])c1ccccc1CSc1nnc(-c2ccc3c(c2)OCCO3)o1", "category": "T"}
{"smilesCode": "O=[N+]([O-])c1ccc(CSc2nnc(-c3ccc4c(c3)OCCO4)o2)cc1", "category": "T"}
{"smilesCode": "Brc1ccc(CSc2nnc(-c3ccc4c(c3)OCCO4)o2)cc1", "category": "T"}

[ask] Does the reported IC50 of the following compound sit strictly below 30 µM? Fc1cccc(F)c1CSc1nnc(-c2ccc3c(c2)OCCO3)o1
[reply] F

[ask] Does the reported IC50 of the following compound sit strictly below 30 µM? O=c1[nH]cc(F)c(=O)[nH]1
[reply] F

[ask] Does the reported IC50 of the following compound sit strictly below 30 µM? Fc1ccccc1CSc1nnc(-c2ccc3c(c2)OCCO3)o1
[reply] T

[ask] Does the reported IC50 of the following compound sit strictly below 30 µM? Fc1ccc(CSc2nnc(-c3ccc4c(c3)OCCO4)o2)cc1
[reply] T

[ask] Does the reported IC50 of the following compound sit strictly below 30 µM? Cc1ccc(CSc2nnc(-c3ccc4c(c3)OCCO4)o2)cc1
[reply] F

---

Target: Telomerase reverse transcriptase (Homo sapiens, UniProt O14746)
Sequence (O14746 whole entry): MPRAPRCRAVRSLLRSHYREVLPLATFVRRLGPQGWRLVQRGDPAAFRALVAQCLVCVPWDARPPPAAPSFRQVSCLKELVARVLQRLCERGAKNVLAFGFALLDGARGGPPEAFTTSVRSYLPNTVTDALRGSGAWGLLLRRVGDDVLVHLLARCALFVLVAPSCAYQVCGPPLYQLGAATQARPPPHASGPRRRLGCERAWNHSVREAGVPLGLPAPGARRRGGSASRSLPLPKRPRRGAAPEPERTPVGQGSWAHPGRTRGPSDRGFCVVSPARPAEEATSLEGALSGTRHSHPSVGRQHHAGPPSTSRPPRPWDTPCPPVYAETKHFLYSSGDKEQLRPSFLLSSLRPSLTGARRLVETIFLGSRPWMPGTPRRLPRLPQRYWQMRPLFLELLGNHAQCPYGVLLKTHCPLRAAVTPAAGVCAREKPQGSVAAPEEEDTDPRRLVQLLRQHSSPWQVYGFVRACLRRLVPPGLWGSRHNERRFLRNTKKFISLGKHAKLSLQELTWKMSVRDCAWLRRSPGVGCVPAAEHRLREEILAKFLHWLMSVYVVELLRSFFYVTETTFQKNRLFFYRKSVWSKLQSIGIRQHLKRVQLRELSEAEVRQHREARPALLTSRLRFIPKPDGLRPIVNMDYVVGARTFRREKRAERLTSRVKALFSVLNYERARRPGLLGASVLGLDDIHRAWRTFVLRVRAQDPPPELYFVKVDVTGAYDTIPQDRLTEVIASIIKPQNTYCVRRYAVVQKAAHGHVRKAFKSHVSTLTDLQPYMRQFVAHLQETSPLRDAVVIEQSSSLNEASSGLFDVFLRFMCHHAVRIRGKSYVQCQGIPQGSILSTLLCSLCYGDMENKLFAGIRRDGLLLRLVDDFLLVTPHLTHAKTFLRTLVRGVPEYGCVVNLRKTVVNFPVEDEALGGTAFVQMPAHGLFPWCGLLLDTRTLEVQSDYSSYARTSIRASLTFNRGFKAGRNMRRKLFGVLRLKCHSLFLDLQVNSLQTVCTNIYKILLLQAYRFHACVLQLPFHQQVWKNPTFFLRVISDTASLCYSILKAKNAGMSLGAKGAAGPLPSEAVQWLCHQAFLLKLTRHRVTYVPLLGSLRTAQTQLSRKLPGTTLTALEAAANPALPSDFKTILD
Assay: Inhibition of telomerase in human SW1116 cells after 24 hrs by TRAP-PCR-ELISA assay
attributeMeasured: log10 IC50 (log10 of the value in µM)
Each number you see is log10 of IC50, and the unit inside the log is µM.

Before answering, review these 5 worked examples.
{"smilesCode": "Brc1cccc(CSc2nnc(-c3ccc4c(c3)OCCO4)o2)c1", "valueReported": 0.39}
{"smilesCode": "Ic1ccc(CSc2nnc(-c3ccc4c(c3)OCCO4)o2)cc1", "valueReported": 0.56}
{"smilesCode": "Ic1ccccc1CSc1nnc(-c2ccc3c(c2)OCCO3)o1", "valueReported": 0.26}
{"smilesCode": "Clc1ccc(CSc2nnc(-c3ccc4c(c3)OCCO4)o2)cc1", "valueReported": 0.46}
{"smilesCode": "Cc1ccccc1CSc1nnc(-c2ccc3c(c2)OCCO3)o1", "valueReported": 0.10}

Each of the following entries comes with a recorded value; kindly state log10 IC50 for each.
1. O=[N+]([O-])c1cccc(CSc2nnc(-c3ccc4c(c3)OCCO4)o2)c1
2. Brc1ccccc1CSc1nnc(-c2ccc3c(c2)OCCO3)o1
3. Fc1ccc(CSc2nnc(-c3ccc4c(c3)OCCO4)o2)c(F)c1

[reply]
1. 0.67
2. 0.31
3. 0.39

---

Consider the following compounds; for each one, report its IC50.
Assay: Antiproliferative activity against human SW1116 cells after 48 hrs by MTT assay
Assay type: functional, cell-based
Conditions: SW 1116, 48 h

Before answering, review these 2 worked examples.
{"smilesCode": "Ic1ccc(CSc2nnc(-c3ccc4c(c3)OCCO4)o2)cc1", "valueReported": "29.2 µM"}
{"smilesCode": "O=[N+]([O-])c1cccc(CSc2nnc(-c3ccc4c(c3)OCCO4)o2)c1", "valueReported": "30.1 µM"}

Each of the following entries comes with a recorded value; kindly state IC50 for each.
1. Fc1ccc(CSc2nnc(-c3ccc4c(c3)OCCO4)o2)c(F)c1
2. Clc1ccccc1CSc1nnc(-c2ccc3c(c2)OCCO3)o1
3. Ic1ccccc1CSc1nnc(-c2ccc3c(c2)OCCO3)o1
4. Clc1ccc(CSc2nnc(-c3ccc4c(c3)OCCO4)o2)cc1
5. Cc1ccccc1CSc1nnc(-c2ccc3c(c2)OCCO3)o1

[reply]
1: 29.6 µM; 2: 29.5 µM; 3: 12.2 µM; 4: 28.4 µM; 5: 23.9 µM

Each of the following entries comes with a recorded value; kindly state IC50 for each.
1. c1ccc(CSc2nnc(-c3ccc4c(c3)OCCO4)o2)cc1
2. Cc1cccc(CSc2nnc(-c3ccc4c(c3)OCCO4)o2)c1
3. Brc1cccc(CSc2nnc(-c3ccc4c(c3)OCCO4)o2)c1
4. Clc1cccc(CSc2nnc(-c3ccc4c(c3)OCCO4)o2)c1
5. Brc1ccccc1CSc1nnc(-c2ccc3c(c2)OCCO3)o1

[reply]
1. 31.5 µM
2. 27.2 µM
3. 20.1 µM
4. 25.2 µM
5. 14.1 µM

---

Target: Telomerase reverse transcriptase (Homo sapiens, UniProt O14746)
Experiment: Inhibition of telomerase in human SW1116 cells after 24 hrs by TRAP-PCR-ELISA assay
Assay type: cell-based, SW 1116
attributeMeasured: IC50 (µM)
Give bare numbers, in µM.

Each of the following entries comes with a recorded value; kindly state IC50 for each.
1. O=[N+]([O-])c1ccccc1CSc1nnc(-c2ccc3c(c2)OCCO3)o1
2. Cc1ccc(CSc2nnc(-c3ccc4c(c3)OCCO4)o2)cc1
3. Fc1ccc(CSc2nnc(-c3ccc4c(c3)OCCO4)o2)cc1
4. Fc1cccc(F)c1CSc1nnc(-c2ccc3c(c2)OCCO3)o1

[reply]
[12.1, 5.04, 3.67, 15.8]

Data credit: ChEMBL document CHEMBL1914319
